- System: SNK-6 (IL-2 2.5 ng/mL);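 also: normalised to DMSO-only wells as negative and benzethonium chloride as positive control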
- run.description: percent inhibition of viability; higher = more inhibition
- study.conditions: 72 h; 1 nM
Can you tell me percent inhibition of viability for the items I'm about to list?
One number for each entry, in %.

compound="CON(C)C(=O)N1N=C(c2cc(F)ccc2F)S[C@@]1(CCCN)c1ccccc1 [ARRY-520] (max concentration tested 1000 nM)" observation_type="percent inhibition of viability" result=12.7

Your task in this section: give percent inhibition of viability for each listed record.
1. CCc1c(C(=O)C(N)=O)c2c(OCC(=O)O)cccc2n1Cc1ccccc1 [Varespladib] (max concentration tested 10000 nM)
2. O=C(CCBr)N1CCN(C(=O)CCBr)CC1 [Pipobroman] (max concentration tested 10000 nM)
3. CCN(c1cc(-c2ccc(CN3CCOCC3)cc2)cc(C(=O)NCc2c(C)cc(C)[nH]c2=O)c1C)C1CCOCC1 [E7438] (max concentration tested 10000 nM)
4. c1ccc([C@H]2CN3CCSC3=N2)cc1 [Levamisole] (max concentration tested 10000 nM)
5. CO[C@H]1/C=C\C=C(/C)C(=O)NC2=CC(=O)C(NCCN(C)C)=C(C[C@@H](C)C[C@H](OC)[C@H](O)[C@@H](C)/C=C(\C)[C@@H]1OC(N)=O)C2=O [Alvespimycin] (max concentration tested 1000 nM)
6. CC(C)n1nc(-c2ccc3oc(N)nc3c2)c2c(N)ncnc21 [INK128] (max concentration tested 1000 nM)
7. CNC(=O)c1nn(C)c2c1C(C)(C)Cc1cnc(Nc3ccc(N4CCN(C)CC4)cc3)nc1-2 [Milciclib] (max concentration tested 10000 nM)

1. -7.52
2. -14.3
3. 1.4
4. 3.65
5. 9.82
6. -3.64
7. 2.94
